System: P388 leukemia ip, CD2F1 mice, survival T/C
protocol-summary: NCI In Vivo Anticancer Drug Screen. Data for tumor model P388 Leukemia (intraperitoneal) in CD2F1 (CDF1) mice
measurement-setup: endpoint: median survival time; dose: 50.0 mg/kg/injection; schedule: Q01DX005 (ip); vehicle: saline with Tween-80; higher = longer survival
Experimental: The antitumor activity of compounds was measured in mice bearing transplantable tumors. Survival or tumor size were measured and the results are expressed as the measurement made in the treated group (T) divided by the measurement made in the vehicle treated control group (C). The tumor model used in this assay is P388 Leukemia (intraperitoneal) in CD2F1 (CDF1) mice
Inconclusive results and toxic doses are left out.
parameter: T/C

{"columns": ["molecule", "value"],
 "data": [
  ["COC(=O)C1=CO[C@@H](C)[C@@H]2CN3CCc4c([nH]c5ccc(OC)cc45)[C@@H]3C[C@H]12", "106 % of control"],
  ["C=C(CCCC(C)(C)OCOCCOC)[Si](C)(C)C", "101 % of control"],
  ["O=C1C=CC(=O)C(C2OC(=O)C(Cl)=C2Cl)=C1 (centres undefined)", "110 % of control"],
  ["CC(=O)Oc1cccc2c1CC(C[Se]c1ccccc1)C(=O)O2 (centres undefined)", "94 % of control"]
]}
